TGT: PI3K gamma (Homo sapiens, UniProt P48736)
Sequence (P48736 144-1102 limits assumed): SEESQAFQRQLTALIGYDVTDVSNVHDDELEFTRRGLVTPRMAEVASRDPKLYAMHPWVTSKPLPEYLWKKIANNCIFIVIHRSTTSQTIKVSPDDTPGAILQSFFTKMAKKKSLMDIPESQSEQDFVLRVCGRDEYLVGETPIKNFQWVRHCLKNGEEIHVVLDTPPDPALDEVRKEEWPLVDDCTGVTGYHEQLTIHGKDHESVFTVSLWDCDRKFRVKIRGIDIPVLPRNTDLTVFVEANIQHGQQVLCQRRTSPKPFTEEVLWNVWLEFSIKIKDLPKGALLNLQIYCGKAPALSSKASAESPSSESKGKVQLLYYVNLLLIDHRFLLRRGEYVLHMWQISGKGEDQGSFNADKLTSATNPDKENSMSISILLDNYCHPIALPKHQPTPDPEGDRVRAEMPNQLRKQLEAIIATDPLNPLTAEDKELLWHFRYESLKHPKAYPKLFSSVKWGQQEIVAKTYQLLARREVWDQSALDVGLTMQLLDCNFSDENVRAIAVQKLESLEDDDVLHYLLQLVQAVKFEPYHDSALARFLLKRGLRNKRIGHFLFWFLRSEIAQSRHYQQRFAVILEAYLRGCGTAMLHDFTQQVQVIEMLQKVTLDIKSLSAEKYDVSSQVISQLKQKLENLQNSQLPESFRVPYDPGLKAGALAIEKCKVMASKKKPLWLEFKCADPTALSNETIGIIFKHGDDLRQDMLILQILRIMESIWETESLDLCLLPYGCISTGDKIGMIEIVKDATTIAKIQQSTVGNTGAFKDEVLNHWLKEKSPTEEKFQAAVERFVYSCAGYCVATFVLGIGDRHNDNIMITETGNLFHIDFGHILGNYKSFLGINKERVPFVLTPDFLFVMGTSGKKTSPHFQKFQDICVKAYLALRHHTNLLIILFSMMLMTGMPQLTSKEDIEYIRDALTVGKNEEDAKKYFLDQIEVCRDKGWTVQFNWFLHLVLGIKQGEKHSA
Can you tell me pIC50 for the items I'm about to list?
To interpret pIC50, take it as minus log10 of a concentration measured in moles per litre.

### Prompt Requested read-out: pIC50. Entry: CCOc1ccc(-c2ccc3ncc4c(c3c2)n(-c2cn(C)nc2Cl)c(=O)n4C)cn1
### Response 6.28

### Prompt Try Cc1nn(C(C)C)cc1-n1c(=O)n(C)c2cnc3ccc(-c4ccc(C(N)=O)nc4)cc3c21 next.
### Response 6.33

### Prompt Next up: Cc1nn(C)c(C)c1-n1c(=O)n(C)c2cnc3ccc(-c4cccnc4)cc3c21
### Response 6.56

### Prompt Then COCCOc1cncc(-c2ccc3ncc4c(c3c2)n(-c2cn(C)nc2C)c(=O)n4C)c1 ?
### Response 6.75

### Prompt Field entry: CCn1cc(-n2c(=O)n(C)c3cnc4ccc(-c5cnc(OC)nc5)cc4c32)c(C)n1
### Response 6.41

### Prompt # iterate: Cc1nn(C)cc1-n1c(=O)n(C)c2cnc3ccc(-c4ccc(C(N)=O)cc4)cc3c21
### Response 6.78

### Prompt Moving on to the next compound: COc1cncc(-c2ccc3ncc4c(c3c2)n(-c2cn(C)nc2C)c(=O)n4C)c1
### Response 7.04

### Prompt Please do the same for COc1ccc(-c2ccc3ncc4c(c3c2)n(-c2cnn(C)c2C)c(=O)n4C)cn1 as well.
### Response 6.69

### Prompt One more compound: COc1ccc(-c2ccc3ncc4c(c3c2)n(-c2c(C)nn(C)c2C)c(=O)n4C)cc1OC
### Response 7.00

### Prompt Would you mind doing CCOc1ccc(-c2ccc3ncc4c(c3c2)n(-c2c(C)nn(C)c2C)c(=O)n4C)cc1OC as well?
### Response 6.84

### Prompt How about Cc1nn(C)cc1-n1c(=O)n(C)c2cnc3ccc(-c4ccc5c(c4)CC(=O)N5)cc3c21 ?
### Response 6.56

### Prompt What about this compound? Cc1nn(C(C)C)cc1-n1c(=O)n(C)c2cnc3ccc(-c4cnc(N(C)C)nc4)cc3c21
### Response 6.74

### Prompt Now the same for Cc1nn(C)cc1-n1c(=O)n(C)c2cnc3ccc(-c4cccc(O)c4)cc3c21
### Response 6.85

### Prompt // same read-out, input: Cc1nn(C)cc1-n1c(=O)n(C)c2cnc3ccc(-c4ccc(NCCO)nc4)cc3c21
### Response 6.41

### Prompt What do you have for CCOc1cc(-c2ccc3ncc4c(c3c2)n(-c2cn(CC)nc2C)c(=O)n4C)ccc1OC ?
### Response 7.12

### Prompt Now try CCn1cc(-n2c(=O)n(C)c3cnc4ccc(-c5ccc(CO)nc5)cc4c32)c(C)n1 .
### Response 6.38

### Prompt Next up: CCOc1ccc(-c2ccc3ncc4c(c3c2)n(-c2cc(C(F)(F)F)nn2C)c(=O)n4C)cn1
### Response 6.25

### Prompt // same read-out, input: COc1ccc(-c2ccc3ncc4c(c3c2)n(-c2cn(C(C)C)nc2C)c(=O)n4C)cc1OC
### Response 6.88

### Prompt Try Cc1cncc(-c2ccc3ncc4c(c3c2)n(-c2cn(C)nc2C)c(=O)n4C)c1 next.
### Response 6.95

### Prompt Now the compound Cc1nn(C)cc1-n1c(=O)n(C)c2cnc3ccc(-c4cccc(NS(C)(=O)=O)c4)cc3c21
### Response 6.15

### Prompt Try the compound CCn1c(=O)n(-c2cn(C)nc2C)c2c3nc(-c4ccc(OC)c(OC)c4)ccc3ncc21
### Response 6.67

### Prompt // same read-out, input: COc1cc(-c2ccc3ncc4c(c3c2)n(-c2c(C)nn(C)c2C)c(=O)n4C)ccc1O
### Response 6.93

### Prompt Quick one: Cc1nn(C)cc1-n1c(=S)n(C)c2cnc3ccc(-c4cccnc4)cc3c21
### Response 6.85

### Prompt Next compound: CCOc1ncc(-c2ccc3ncc4c(c3c2)n(-c2cn(C)nc2C)c(=O)n4C)cn1
### Response 6.22

### Prompt What would you report for CNc1ccc(-c2ccc3ncc4c(c3c2)n(-c2cn(CC(=O)N(C)C)nc2C)c(=O)n4C)cn1 ?
### Response 6.86

### Prompt Here is the next compound: Cc1ncc(-c2ccc3ncc4c(c3c2)n(-c2cn(C)nc2C)c(=O)n4C)cc1NS(C)(=O)=O
### Response 7.02

### Prompt Consider next the compound COCc1ccc(-c2ccc3ncc4c(c3c2)n(-c2cn(C(C)C)nc2C)c(=O)n4C)cn1 in the same way.
### Response 6.51

### Prompt Now the same for Cc1nn(C(C)C)cc1-n1c(=O)n(C)c2cnc3ccc(-c4ccc(N(C)C)nc4)cc3c21
### Response 6.39

### Prompt Now consider CNc1ccc(-c2ccc3ncc4c(c3c2)n(-c2cn(C(C)C)nc2C)c(=O)n4C)cn1 .
### Response 6.79

### Prompt Queued: Cc1nn(C)cc1-n1c(=O)n(C)c2cnc3ccc(-c4cccnc4)cc3c21
### Response 6.89

### Prompt And for Cc1nn(C)cc1-n1c(=O)n(C)c2cnc3ccc(-c4ccc(N5CCC5)nc4)cc3c21 ?
### Response 6.51

### Prompt Now consider CCn1cc(-n2c(=O)n(C)c3cnc4ccc(-c5ccc(COC)nc5)cc4c32)c(C)n1 .
### Response 6.24

The origin of these recorded values is patent US20140005163A1.
